tested on: Scytalidium dimidiatum; assay: Antifungal Activity Test 1: MIC by broth microdilution method (Alamar Blue); format: cell-based; settings: Neoscytalidium dimidiatum, clinical isolate 531581; growth inhibited by 80% or more; read-out: MIC
MEASURED_ENDPOINT: MIC

In [3]: df
Out[3]:
                                   molecule  readout_value
0        OC(Cn1cncn1)(Cn1cncn1)c1ccc(F)cc1F      > 4 µg/mL
1  CCC(C)n1ncn(-c2ccc(N3CCN(c4ccc(OCC5COC(Cn6cncn6)(c6ccc(Cl)cc6Cl)O5)cc4)CC3)cc2)c1=O (stereo not drawn)      > 4 µg/mL
2  CC(=O)N1CCN(c2ccc(OCC3COC(Cn4ccnc4)(c4ccc(Cl)cc4Cl)O3)cc2)CC1 (stereo not drawn)      > 4 µg/mL

====

Item-by-item account of MIC
system: Scytalidium dimidiatum; test: Antifungal Activity Test 1: MIC by broth microdilution method (Alamar Blue); assay type: cell-based; conditions: Neoscytalidium dimidiatum, clinical isolate 530914; growth inhibited by 80% or more; read-out: MIC

COMPOUND	ASSAY_TARGET	MIC
CCC(C)n1ncn(-c2ccc(N3CCN(c4ccc(OCC5COC(Cn6cncn6)(c6ccc(Cl)cc6Cl)O5)cc4)CC3)cc2)c1=O (stereo not drawn) [ITZ, itraconazole]	Scytalidium dimidiatum	> 4 µg/mL
CC(=O)N1CCN(c2ccc(OCC3COC(Cn4ccnc4)(c4ccc(Cl)cc4Cl)O3)cc2)CC1 (stereo not drawn) [KCZ, ketoconazole]	Scytalidium dimidiatum	> 4 µg/mL
OC(Cn1cncn1)(Cn1cncn1)c1ccc(F)cc1F [FCZ, fluconazole]	Scytalidium dimidiatum	> 4 µg/mL
